assay: Solubility of compound in PBS buffer at pH 7.4 incubated for 48 to 72 hrs under shaking conditions by LCMS analysis; format: physicochemical
REPORTED PROPERTY: solubility thermodynamic (µM)

1. C=CC(=O)N1CCN(c2nc(=O)n(-c3c(C)cccc3C(C)C)c3nc(-c4c(O)cccc4F)c(F)cc23)[C@@H](C)C1
2. C=CC(=O)N1CCN(c2nc(=O)n(-c3c(C)ncnc3C(C)C)c3nc(-c4c(O)cccc4F)c(F)cc23)[C@@H](C)C1
query: Hi, I'm comparing two records. Which one has the lower solubility thermodynamic, 1 or 2 ? State your choice using its label.
result: 1
(1: 41 µM, 2: 495 µM)

P. C=CC(=O)N1CCN(c2nc(=O)n(-c3ccccc3C(C)C)c3nc(-c4ccccc4F)c(Cl)cc23)[C@@H](C)C1
Q. C=CC(=O)N1CCN(c2nc(=O)n(-c3c(C)ccnc3C(C)C)c3nc(-c4c(O)cccc4F)c(Cl)cc23)[C@@H](C)C1
query: Could you please tell me which of these two has the higher solubility thermodynamic: P or Q ? Could you answer with the label of the item you picked?
result: Q
